The measurements presented in this section are drawn from patent US6203976A.

Tested on: human growth hormone (532) promoter
Assay: High-throughput luciferase reporter assay, human Growth Hormone promoter (Screen III)
Assay type: cell-based
Conditions: Screen III inhibitors; 532 cells; 6 hours
Use 5 fold as the dividing line for FOLD INHIBITION RELATIVE TO SOLVENT CONTROL, hGH, with the line itself on the 1.0 side and lower values as 0.0.

Lookup: Confirm if FOLD INHIBITION RELATIVE TO SOLVENT CONTROL, hGH reported for the molecule N#Cc1ccc(Br)cc1 [compound 1704] is 5 fold or above.
Found: 0.0

Lookup: Does Cc1ccc(P(CCP(c2ccc(C)cc2)c2ccc(C)cc2)c2ccc(C)cc2)cc1 [compound 1591] have a reported FOLD INHIBITION RELATIVE TO SOLVENT CONTROL, hGH of at least 5 fold?
Found: 1.0

Lookup: Entry Cc1cc(=O)oc2c(CN(CC(=O)O)CC(=O)O)c(O)ccc12 [compound 1712] : is its FOLD INHIBITION RELATIVE TO SOLVENT CONTROL, hGH no less than 5 fold?
Found: 1.0

Lookup: I'd appreciate it if you could say whether O=c1c(O)c(-c2ccc(O)cc2O)oc2cc(O)cc(O)c12 [compound 371] has FOLD INHIBITION RELATIVE TO SOLVENT CONTROL, hGH at least equal to 5 fold.
Found: 0.0

Lookup: Would you say CN(C)c1ccc(C(=N)c2ccc(N(C)C)cc2)cc1 [compound 183] shows FOLD INHIBITION RELATIVE TO SOLVENT CONTROL, hGH at minimum 5 fold?
Found: 0.0

---

FOLD INDUCTION RELATIVE TO SOLVENT CONTROL, hGH reference
System: human growth hormone (532) promoter
Assay: High-throughput luciferase reporter assay, human Growth Hormone promoter (Screen III)
Assay type: cell-based
Details: Screen III activators; 532 cells; 6 hours
Note: unit fold is implicit; provide only the numeric part.

Lookup: Supply measured FOLD INDUCTION RELATIVE TO SOLVENT CONTROL, hGH of `Brc1cccc(-c2ccccc2)c1` in your reply.
Found: 0.34

Lookup: Provide only the value of recorded FOLD INDUCTION RELATIVE TO SOLVENT CONTROL, hGH for `CN(C)c1ccc(C(=C2C=CC(=[N+](C)C)C=C2)c2ccc([N+](C)(C)C)cc2)cc1`
Found: 0.52

Lookup: Indicate its recorded FOLD INDUCTION RELATIVE TO SOLVENT CONTROL, hGH; the molecule in question is `CC(C)(C)c1ccc(Br)cc1`
Found: 0.74

Lookup: Please report FOLD INDUCTION RELATIVE TO SOLVENT CONTROL, hGH for the following molecule: `Cc1ccc(N)c(S(=O)(=O)O)c1`
Found: 0.04

New cases:
Lookup: State its FOLD INDUCTION RELATIVE TO SOLVENT CONTROL, hGH: `Nc1nccs1`
Found: 5.44

Lookup: Retrieve FOLD INDUCTION RELATIVE TO SOLVENT CONTROL, hGH measured for `Clc1cc(Cl)cc(Br)c1` and print it.
Found: 0.43

---

compounds and their reported FOLD INDUCTION RELATIVE TO SOLVENT CONTROL, GCSF
Tested on: human G-CSF (G21) promoter
Assay: High-throughput luciferase reporter assay, G-CSF promoter (Screen III)
Settings: Screen III activators; G21 cells; 6 hours
Give the number; fold is assumed, so skip it.

Lookup: Let me know recorded FOLD INDUCTION RELATIVE TO SOLVENT CONTROL, GCSF for CCOC(=O)c1c[nH]c(=S)[nH]c1=O [compound 1740] , thanks.
Found: 0.74

Lookup: Answer with the recorded FOLD INDUCTION RELATIVE TO SOLVENT CONTROL, GCSF of O=c1ccc2[n+]([O-])c3ccc(O)cc3oc-2c1 [compound 427] only.
Found: 3.14

Lookup: Quote FOLD INDUCTION RELATIVE TO SOLVENT CONTROL, GCSF reported for O=C(N[C@H](CO)[C@H](O)c1ccc([N+](=O)[O-])cc1)C(Cl)Cl [compound 2191] please.
Found: 0.37

--- query ---
Lookup: State, in one line, measured FOLD INDUCTION RELATIVE TO SOLVENT CONTROL, GCSF of CC1(C)[C@@H](C(=O)OCC(F)(F)C(F)(F)C(F)(F)C(F)(F)C(F)(F)C(F)F)CC[C@@]1(C)C(=O)OCC(F)(F)C(F)(F)C(F)(F)C(F)(F)C(F)(F)C(F)F [compound 1592]
Found: 3.20

---

Documented FOLD INDUCTION RELATIVE TO SOLVENT CONTROL, hGH across a set of compounds
Test system: human growth hormone (532) promoter
Assay: High-throughput luciferase reporter assay, human Growth Hormone promoter (Screen III)
Format: cell-based
Details: Screen III activators; 532 cells; 6 hours
State just the number; it will be interpreted in fold.

For orientation, consider the following solved cases.
Lookup: Determine reported FOLD INDUCTION RELATIVE TO SOLVENT CONTROL, hGH for `O=c1ccc2[n+]([O-])c3ccc(O)cc3oc-2c1` ; test system: human growth hormone (532) promoter.
Found: 0.43

Lookup: Supply FOLD INDUCTION RELATIVE TO SOLVENT CONTROL, hGH measured with human growth hormone (532) promoter for `CCn1c(=O)[nH]c2ccccc21` .
Found: 11.18

Lookup: Give measured FOLD INDUCTION RELATIVE TO SOLVENT CONTROL, hGH for `Cc1c(C2(c3cc(Br)c(O)c(Br)c3C)OS(=O)(=O)c3ccccc32)cc(Br)c(O)c1Br` (human growth hormone (532) promoter).
Found: 15.19

Others:
Lookup: Print human growth hormone (532) promoter FOLD INDUCTION RELATIVE TO SOLVENT CONTROL, hGH for `O=C1OC2(c3cc(I)c(O)c(I)c3Oc3c2cc(I)c(O)c3I)c2c(Cl)c(Cl)c(Cl)c(Cl)c21` .
Found: 5.31

Lookup: Jot down FOLD INDUCTION RELATIVE TO SOLVENT CONTROL, hGH (human growth hormone (532) promoter) of `c1ncncn1` .
Found: 0.50

Lookup: Quote FOLD INDUCTION RELATIVE TO SOLVENT CONTROL, hGH with test system human growth hormone (532) promoter for `COc1c(F)cc(Br)cc1[N+](=O)[O-]`
Found: 0.67

Lookup: Find the measured FOLD INDUCTION RELATIVE TO SOLVENT CONTROL, hGH of `Cc1ccc(C(=O)c2ccccc2N)cc1` with human growth hormone (532) promoter as test system.
Found: 0.50

Lookup: State the measured FOLD INDUCTION RELATIVE TO SOLVENT CONTROL, hGH (human growth hormone (532) promoter) of `CN(C)C(=S)SCC#N`
Found: 0.52

---

# reported FOLD INDUCTION RELATIVE TO SOLVENT CONTROL, MMTV; entries follow
System: MMTV (M10) promoter
Assay: High-throughput luciferase reporter assay, MMTV promoter (Screen III)
Assay type: cell-based, mouse
Conditions: Screen III activators; M10 cells; 6 hours
Numeric only. Scale: fold

Lookup: Lab note: record FOLD INDUCTION RELATIVE TO SOLVENT CONTROL, MMTV of O=c1[nH]c(=O)n([C@H]2C[C@H](O)[C@@H](CO)O2)cc1Br [compound 543] tested on MMTV (M10) promoter.
Found: 0.98

Lookup: Please respond with reported FOLD INDUCTION RELATIVE TO SOLVENT CONTROL, MMTV (system MMTV (M10) promoter) for CC1(C)[C@@H](C(=O)OCC(F)(F)C(F)(F)C(F)(F)C(F)(F)C(F)(F)C(F)F)CC[C@@]1(C)C(=O)OCC(F)(F)C(F)(F)C(F)(F)C(F)(F)C(F)(F)C(F)F [compound 1592] .
Found: 1.34

Lookup: Fill: FOLD INDUCTION RELATIVE TO SOLVENT CONTROL, MMTV (MMTV (M10) promoter) for this compound N=c1cc2oc3cc(N)ccc3nc-2c2ccccc12 [compound 1776]
Found: 1.36

Lookup: Identify measured FOLD INDUCTION RELATIVE TO SOLVENT CONTROL, MMTV obtained with MMTV (M10) promoter for CC(=O)N(C)c1ccc(N)cc1 [Chemical #1374, 4'-Amino-N-methylacetanilide] .
Found: 1.05

Would you kindly look at the next entry?
Lookup: Report its FOLD INDUCTION RELATIVE TO SOLVENT CONTROL, MMTV with MMTV (M10) promoter as the test system: O=c1c(O)c(-c2ccc(O)c(O)c2)oc2cc(O)ccc12 [compound 325]
Found: 1.0
